Assign melting point to each entry below.

# melting point lookup, item CC(NCc1nc(-c2ccc(N(C)Cc3ccc(C4CCCCC4)cc3)cc2)cs1)C(=O)O (centres unmarked)
135 to 138 °C

What value of measured melting point is listed for CCOC(=O)c1ccc(OCc2nc(-c3nc4cc(C(CC)CC)ccc4n3Cc3ccc(C(C)C)cc3)cs2)cc1 ?
106 to 107 °C

Returns the measured melting point for the input compound. Input: CCCC(CCC)c1ccc(COc2ccc(-c3csc(CN(CC(=O)O)Cc4ccccc4)n3)cc2)cc1
145 to 148 °C

Using the record for CCCC(CCC)c1ccc(Cn2c(-c3csc(CN4CCC(c5ccc(C(=O)O)cc5)CC4)n3)nc3ccccc32)cc1 , report its melting point.
208.5 to 209.8 °C

Look up melting point for this compound: CN(Cc1ccc(C2CCCCC2)cc1)c1ccc(-c2csc(CNC(Cc3ccccc3)C(=O)O)n2)cc1 (centres unmarked)
185 to 190 °C

Query (compound): CCCC(CCC)c1ccc(CN(C)c2ccc(-c3csc(COc4cncc(C(=O)O)c4)n3)cc2)cc1 ; field requested: melting point
178 to 181 °C

State the recorded melting point for this entry: CCCC(CCC)c1ccc(OCc2ccc(-c3ccc(CN(CC(=O)O)Cc4cccc(C(=O)O)c4)s3)cc2)cc1
202.8 to 206.4 °C

Requested read-out: melting point. Entry: CCCC(CCC)c1ccc2c(c1)nc(-c1csc(COc3ccc(C(=O)O)cc3)n1)n2Cc1ccc(C(C)C)cc1
147 to 152 °C

Any idea what its melting point is? The compound is CCCC(CCC)c1ccc(OCc2ccc(-c3csc(Cn4nc(C(=O)O)cc4C)n3)cc2)cc1
185 to 194 °C

Fill in: melting point of CCC(CC)CN(Cc1ccc(-c2csc(COc3cncc(C(=O)O)c3)n2)cc1)c1ccc(C(C)C)cc1 is ___
181 °C

Field request: melting point | item: CC(C)CCC1(C(=O)O)CCN(Cc2nc(-c3ccc(N(C)Cc4ccc(C5CCCCC5)cc4)cc3)cs2)CC1
233 to 235 °C

Reported melting point for CCCC(CCC)c1ccc(OCc2ccc(-c3ccc(CN(CC(=O)O)Cc4cc5ccccc5s4)s3)cc2)cc1 : what is it?
202.3 to 204.4 °C

Which value of melting point has been reported for CC(C)Cc1ccc(CN(C)c2ccc(-c3csc(CN(CC(=O)O)Cc4ccccc4)n3)cc2)cc1 in the records?
149 to 151 °C

Entry CCCC(CCC)c1ccc(CN(CC(=O)O)Cc2nc(-c3ccc(N(C)Cc4ccccc4)cc3)cs2)cc1 : reported melting point = ?
137 to 140 °C

Using the record for CCCC(CCC)c1ccc(OCc2ccc(-c3csc(CN(CC(=O)O)CC(=O)Nc4cccnc4)n3)cc2)cc1 , report its melting point.
162.5 °C

For CCCC(CCC)c1ccc(OCc2ccc(-c3csc(CN(CC(=O)O)Cc4cc5ccccc5o4)c3)cc2)cc1 , what is its reported melting point?
146.7 to 148.9 °C

What melting point value was documented for this compound, CCCC(CCC)c1ccc(COc2ccc(-c3csc(CSc4ccc(C(=O)O)cc4)n3)cc2)cc1 ?
117 to 118 °C

What measured melting point goes with CCC(CC)c1ccc(N(Cc2ccc(-c3ccc(CN4Cc5ccccc5C[C@H]4C(=O)O)s3)cc2)C(C)C)cc1 ?
152 °C

Report melting point for CC(C)CCN(CC(=O)O)Cc1nc(-c2ccc(N(C)Cc3ccc([C@H]4CC[C@H](C)CC4)cc3)cc2)cs1 please.
166 to 167 °C

Return reported melting point; argument: CCCC(CCC)c1ccc(COc2ccc(-c3csc(COc4cncc(C(=O)O)c4)n3)cc2OC)cc1
156 to 158 °C

Looking for the measured melting point of CCCC(CCC)c1ccc(CN(C)c2ccc(-c3csc([C@@H]4Cc5ccccc5CN4CC(=O)[O-])n3)cc2)cc1.[Na+] , can you help?
186 to 187 °C

Entry CCC(CC)c1ccc(N(Cc2ccc(-c3csc(CN4Cc5ccccc5CC4C(=O)O)n3)cc2)C(C)C)cc1 (centres unmarked) has what melting point?
127.5 °C

Entry CN(Cc1ccc(C2CCCCC2)cc1)c1ccc(-c2csc(CNS(=O)(=O)c3ccc(C(=O)O)cc3)n2)cc1 : reported melting point = ?
202 to 203 °C

melting point lookup needed for CCCC(CCC)c1ccc(OCc2ccc(-c3csc(COc4ccc(C(=O)O)cc4)c3)cc2)cc1 , thanks.
194.2 to 195.5 °C

Find the recorded melting point belonging to CCCC(CCC)c1ccc(COc2ccc(-c3csc(CN4CCC(c5ccc(C(=O)O)cc5)CC4)n3)cc2)cc1 and report it.
191 to 193 °C

Need melting point of CCCC(CCC)c1ccc(CN(C)c2ccc(-c3csc(CN(CC(=O)O)C(=O)c4ccc(C)cc4)n3)cc2)cc1 , thanks.
114 to 117 °C

Returns the measured melting point for the input compound. Input: CCCC(CCC)c1ccc(OCc2ccc(-c3csc(CN(CCN)C(=O)c4ccc(C(=O)O)cn4)n3)cc2)cc1.Cl
227 to 229 °C

Sample CCCC(CCC)c1ccc2c(c1)nc(-c1csc(COc3ccc(C(=O)O)cc3)n1)n2Cc1cccc(C)n1 — what was its melting point?
113 to 116 °C

Given the entry CN(Cc1ccc(C2CCC(C)(C)CC2)cc1)c1ccc(-c2csc(CN(C)S(=O)(=O)c3ccc(C(=O)O)cc3)n2)cc1 , report its measured melting point.
218 to 221 °C
